Target Entity: EGFR[T790M/C797S/L858R] (Homo sapiens, UniProt P00533, C797S/L858R/T790M)
Construct: purchased Carna Bio
Sequence (P00533 25-1210 T790M/C797S/L858R): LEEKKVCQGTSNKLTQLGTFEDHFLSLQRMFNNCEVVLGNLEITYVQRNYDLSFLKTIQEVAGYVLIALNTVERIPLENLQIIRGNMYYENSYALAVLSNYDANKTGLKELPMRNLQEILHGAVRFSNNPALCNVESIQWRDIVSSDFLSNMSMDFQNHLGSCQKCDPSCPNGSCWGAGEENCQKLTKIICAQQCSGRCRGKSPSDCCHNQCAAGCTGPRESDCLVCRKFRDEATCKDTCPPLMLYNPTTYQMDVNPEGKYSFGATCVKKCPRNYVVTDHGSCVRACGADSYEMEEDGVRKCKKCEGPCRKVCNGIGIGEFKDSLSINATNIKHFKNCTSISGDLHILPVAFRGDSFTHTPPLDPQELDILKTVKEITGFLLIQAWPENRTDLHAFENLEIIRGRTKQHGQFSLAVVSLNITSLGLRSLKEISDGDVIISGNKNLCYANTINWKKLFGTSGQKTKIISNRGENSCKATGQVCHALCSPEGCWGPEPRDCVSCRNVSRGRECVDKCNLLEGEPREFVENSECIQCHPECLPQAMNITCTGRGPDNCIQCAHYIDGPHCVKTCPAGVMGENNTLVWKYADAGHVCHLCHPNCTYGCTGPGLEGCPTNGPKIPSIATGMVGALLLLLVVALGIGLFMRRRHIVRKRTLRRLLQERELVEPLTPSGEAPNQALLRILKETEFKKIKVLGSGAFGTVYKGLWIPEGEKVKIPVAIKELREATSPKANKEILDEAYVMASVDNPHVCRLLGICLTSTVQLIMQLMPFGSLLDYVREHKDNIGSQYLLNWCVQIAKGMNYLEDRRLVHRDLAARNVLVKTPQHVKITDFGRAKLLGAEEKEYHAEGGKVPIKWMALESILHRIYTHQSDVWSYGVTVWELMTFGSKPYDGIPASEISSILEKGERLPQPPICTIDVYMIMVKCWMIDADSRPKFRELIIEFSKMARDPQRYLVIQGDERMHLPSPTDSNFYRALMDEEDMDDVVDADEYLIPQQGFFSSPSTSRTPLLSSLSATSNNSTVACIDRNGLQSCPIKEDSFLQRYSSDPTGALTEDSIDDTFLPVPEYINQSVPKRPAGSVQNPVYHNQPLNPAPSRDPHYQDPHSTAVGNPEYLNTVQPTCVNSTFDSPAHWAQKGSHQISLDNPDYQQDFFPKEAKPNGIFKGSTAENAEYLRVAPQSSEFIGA
Assay Text: Inhibition of EGFR[T790M/C797S/L858R] biochemical enzymatic activity (HTRF)
Particulars: EGFR T790M-C797S-L858R, 1 mM ATP, 1 h, room temperature, read-out: IC50 (nM) @T790M- C797S - L858R
Outcome Measure: IC50

>  <Compound>
CC(C)N1CCN(c2ccc3nc4n(c3c2)C23CCC(CN(CCOc5c(cnn5C)-c5cc(cn(C)c5=O)C(=O)N4)C2)C3)CC1 (single isomer, unassigned) [Example A108A]

>  <IC50>
> 5000 nM

$$$$
>  <Compound>
CN1CCOC2(C1)CN(c1ccc3nc4n(c3c1)C13CCC(CN(CCOc5c(cnn5C)-c5cc(cn(C)c5=O)C(=O)N4)C1)C3)C2 (single isomer, unassigned) [Example A86A]

>  <IC50>
> 5000 nM

$$$$

Below: the item to evaluate.
Asked: What measured IC50 is associated with CN1CCC2(CCN(c3ccc4nc5n(c4c3)C34CCC(CN(CCOc6c(cnn6C)-c6cc(cn(C)c6=O)C(=O)N5)C3)C4)CC2)C1 (single isomer, unassigned) [Example A82A] on EGFR[T790M/C797S/L858R] (Homo sapiens, UniProt P00533, C797S/L858R/T790M)?
Given back: > 5000 nM

* * *

Target Entity: EGFR wild type (Homo sapiens)
Construct: purchased Carna Bio
Assay Text: Inhibition of EGFR wild type biochemical enzymatic activity (HTRF)
Particulars: EGFR wild type, 1 mM ATP, 1 h at room temperature, read-out: IC50 @WT
Outcome Measure: IC50

# count of solved cases: 2
>  <Compound>
Cc1cc2cc(n1)-c1cnn(C)c1OCCN1CC3CCC(C3)(C1)n1c(nc3ccc(N4CCC(N5CCN(C)CC5)C4)cc31)NC2=O (single isomer, unassigned) [Example B49A]

>  <IC50>
> 5 µM

$$$$
>  <Compound>
Cc1cc2cc(n1)-c1cnn(C)c1OCCN1CC3CCC(C3)(C1)n1c(nc3ccccc31)NC2=O (stereo not drawn) [Example B8B]

>  <IC50>
> 5 µM

$$$$

Below: the item to evaluate.
Asked: Tell me the measured IC50 of Cc1cc2cc(n1)-c1cnn(C)c1OCCN1CC3CCC(C3)(C1)n1c(nc3ccc(N(C)CCCN(C)C)cc31)NC2=O (single isomer, unassigned) [Example B45A] , please.
Given back: > 5 µM

* * *

Property: pIC50; scope: individual compounds
Target Entity: EGFR (C797S L858R) (Homo sapiens, UniProt P00533, C797S/L858R)
Construct: purchased signalchem
Sequence (P00533 25-1210 C797S/L858R): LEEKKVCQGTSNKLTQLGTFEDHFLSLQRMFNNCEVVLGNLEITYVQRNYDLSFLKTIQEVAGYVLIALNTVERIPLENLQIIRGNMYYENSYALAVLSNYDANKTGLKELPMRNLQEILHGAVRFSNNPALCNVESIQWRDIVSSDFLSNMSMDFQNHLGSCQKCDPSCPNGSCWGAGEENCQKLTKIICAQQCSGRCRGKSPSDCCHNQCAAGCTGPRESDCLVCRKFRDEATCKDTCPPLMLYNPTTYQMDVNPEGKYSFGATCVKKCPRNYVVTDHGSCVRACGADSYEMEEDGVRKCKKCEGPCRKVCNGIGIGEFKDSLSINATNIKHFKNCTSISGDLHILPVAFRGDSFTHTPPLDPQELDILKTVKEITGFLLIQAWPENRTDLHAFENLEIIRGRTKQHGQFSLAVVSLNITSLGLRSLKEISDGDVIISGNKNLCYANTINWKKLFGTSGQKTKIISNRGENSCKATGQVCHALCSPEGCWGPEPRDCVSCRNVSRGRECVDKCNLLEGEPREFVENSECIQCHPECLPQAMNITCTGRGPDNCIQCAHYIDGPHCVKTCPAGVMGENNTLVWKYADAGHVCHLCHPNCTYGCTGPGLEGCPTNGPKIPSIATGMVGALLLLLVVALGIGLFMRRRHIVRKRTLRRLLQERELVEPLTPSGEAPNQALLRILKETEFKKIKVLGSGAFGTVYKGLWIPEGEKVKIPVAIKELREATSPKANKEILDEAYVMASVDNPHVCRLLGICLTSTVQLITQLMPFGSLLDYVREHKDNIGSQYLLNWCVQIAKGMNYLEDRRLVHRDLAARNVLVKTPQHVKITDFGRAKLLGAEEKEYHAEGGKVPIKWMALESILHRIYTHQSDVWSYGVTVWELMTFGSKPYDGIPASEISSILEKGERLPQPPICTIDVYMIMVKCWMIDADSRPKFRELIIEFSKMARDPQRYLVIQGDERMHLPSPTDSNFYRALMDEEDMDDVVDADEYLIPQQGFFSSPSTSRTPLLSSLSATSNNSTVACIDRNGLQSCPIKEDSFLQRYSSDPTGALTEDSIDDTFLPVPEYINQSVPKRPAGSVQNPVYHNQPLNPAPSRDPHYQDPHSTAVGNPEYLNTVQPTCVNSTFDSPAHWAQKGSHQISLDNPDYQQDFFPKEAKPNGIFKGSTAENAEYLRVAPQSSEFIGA
Assay Text: Inhibition of EGFR (C797S L858R) biochemical enzymatic activity (HTRF)
Particulars: EGFR (C797S L858R), 1 mM ATP, 1 h at room temperature, read-out: IC50 @L858-C797S
pIC50: −log10 of the molar value.

>  <Compound>
Cc1cc2cc(n1)-c1cc(=O)n(C)cc1OCCC[C@@H](C)Cn1c(nc3ccccc31)NC2=O

>  <Outcome Measure>
pIC50

>  <Measurement>
< 5.30

$$$$

Asked: Tell me the measured pIC50 of Cc1cc2cc(n1)-c1cnn(C)c1OCCN1CC3CCC(C3)(C1)n1c(nc3ccc(N(C)CCN(C)C)cc31)NC2=O (single isomer, unassigned) [Example B47A] , please.
Given back: < 5.30

Asked: Follow-up entry: "Cc1cc2cc(n1)-c1cnn(C)c1OCCCCCn1c(nc3ccc4c(c31)CCNC4)NC2=O"
Given back: < 5.30

Asked: Follow-up entry: "Cc1cc2cc(n1)-c1cnn(C)c1OCCCCCn1c(nc3ccn(C)c(=O)c31)NC2=O"
Given back: < 5.30

Asked: Follow-up entry: COCCN(C)c1ccc2nc3n(c2c1)C12CCC(CN(CCOc4c(cnn4C)-c4cc(cc(C)n4)C(=O)N3)C1)C2 (single isomer, unassigned) [Example B46A]
Given back: < 5.30

Asked: Follow-up entry: Cc1cc2cc(n1)-c1cnn(C)c1OCCN1CCOCC(C1)n1c(nc3ccccc31)NC2=O (stereo not drawn) [Example B7B]
Given back: 5.35

* * *

Target Entity: EGFR L858R (Homo sapiens, UniProt P00533, L858R)
Construct: purchased Carna Bio
Sequence (P00533 25-1210 L858R): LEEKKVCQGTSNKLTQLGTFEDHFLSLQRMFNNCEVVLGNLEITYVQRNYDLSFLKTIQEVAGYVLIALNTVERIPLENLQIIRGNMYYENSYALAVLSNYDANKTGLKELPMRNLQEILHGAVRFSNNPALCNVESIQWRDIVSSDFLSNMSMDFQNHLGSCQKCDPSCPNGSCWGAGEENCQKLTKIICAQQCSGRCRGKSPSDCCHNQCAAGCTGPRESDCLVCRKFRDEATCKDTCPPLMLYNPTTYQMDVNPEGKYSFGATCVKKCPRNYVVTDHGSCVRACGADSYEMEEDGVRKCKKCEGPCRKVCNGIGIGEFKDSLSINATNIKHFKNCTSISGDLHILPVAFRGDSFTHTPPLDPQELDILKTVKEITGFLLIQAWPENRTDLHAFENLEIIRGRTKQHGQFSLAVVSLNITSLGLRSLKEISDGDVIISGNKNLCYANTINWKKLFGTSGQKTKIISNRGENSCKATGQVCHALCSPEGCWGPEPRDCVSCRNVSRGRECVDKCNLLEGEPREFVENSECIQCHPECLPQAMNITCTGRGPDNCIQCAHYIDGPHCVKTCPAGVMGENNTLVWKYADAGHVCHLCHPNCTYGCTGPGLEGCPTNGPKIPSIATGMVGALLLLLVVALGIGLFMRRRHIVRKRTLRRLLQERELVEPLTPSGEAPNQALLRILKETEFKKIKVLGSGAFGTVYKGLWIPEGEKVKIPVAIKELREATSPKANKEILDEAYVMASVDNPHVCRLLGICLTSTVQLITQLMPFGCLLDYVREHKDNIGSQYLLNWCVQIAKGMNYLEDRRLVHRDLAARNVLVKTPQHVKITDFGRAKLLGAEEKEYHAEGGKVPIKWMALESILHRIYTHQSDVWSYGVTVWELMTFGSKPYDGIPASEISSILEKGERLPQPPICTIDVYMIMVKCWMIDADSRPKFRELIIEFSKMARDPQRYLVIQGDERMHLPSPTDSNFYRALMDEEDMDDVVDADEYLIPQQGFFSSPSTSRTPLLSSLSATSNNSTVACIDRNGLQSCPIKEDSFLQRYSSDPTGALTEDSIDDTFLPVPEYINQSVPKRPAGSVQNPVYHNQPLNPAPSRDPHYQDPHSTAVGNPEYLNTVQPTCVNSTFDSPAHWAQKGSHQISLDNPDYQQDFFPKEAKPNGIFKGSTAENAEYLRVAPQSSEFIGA
Assay Text: Inhibition of EGFR L858R biochemical enzymatic activity (HTRF)
Particulars: 1 mM ATP, 1 h, room temperature, read-out: IC50 (nM) @L858R
Protocol: Biological Example 1: Inhibition of EGFR WT and Mutant Biochemical Enzymatic Activity The inhibition potency of compounds against these enzymes was assessed using Homogenous Time Resolved Fluorescence approach (HTRF, CisBio. Cat No. 62TKOPEJ). Inhibitory effects of the compounds were determined by measuring the enzymatic activity of EGFR enzyme phosphorylates 1 μM TK Substrate-biotin in the presence of 1 mM adenosine-5′-triphosphate (ATP) and varying concentrations of the test compound. […]
# note: exactly 40 nM is not below, so it is 0.0; use 1.0 for IC50 strictly under it

Recorded results for 6 molecules are shown here.
>  <Molecule>
C[C@@H]1CCCOc2c(cnn2C)-c2cc(cn(C)c2=O)C(=O)Nc2nc3ccc4c(c3n2C1)CCN(C)C4

>  <Class>
0.0

$$$$
>  <Molecule>
CC(C)N1CCN(c2ccc3nc4n(c3c2)C[C@H](C)CCCOc2c(cnn2C)-c2cc(cn(C)c2=O)C(=O)N4)CC1

>  <Class>
1.0

$$$$
>  <Molecule>
CN1CCN(C2CCN(c3ccc4nc5n(c4c3)C34CCC(CN(CCOc6c(cnn6C)-c6cc(cn(C)c6=O)C(=O)N5)C3)C4)CC2)CC1 (single isomer, unassigned) [Example A106B]

>  <Class>
1.0

$$$$
>  <Molecule>
C[C@@H]1CCCOc2c(cnn2C)-c2cc(cn(C)c2=O)C(=O)Nc2nc3ccc(N4CC5(CCN(C)CC5(F)F)C4)cc3n2C1

>  <Class>
1.0

$$$$
>  <Molecule>
CN1CCN(c2ccc3c(c2)nc2n3C34CCC(CN(CCOc5c(cnn5C)-c5cc(cn(C)c5=O)C(=O)N2)C3)C4)CC1 (stereo not shown) [Example A60]

>  <Class>
0.0

$$$$
>  <Molecule>
C[C@@H]1CCCOc2ccccc2-c2cc(cn(C)c2=O)C(=O)Nc2nc3ccc(N4CCN(C)CC4)cc3n2C1

>  <Class>
1.0

$$$$

Turning now to a further molecule:
Asked: Determine whether this molecule shows IC50 lower than 40 nM (ties excluded): Cn1ncc2c1OCCN1CCCCC(C1)n1c(nc3ccccc31)NC(=O)c1cc-2c(=O)n(C)c1 (stereo not shown)
Given back: 0.0

* * *

Property: IC50; scope: individual molecules
Target Entity: EGFR[T790M/C797S/L858R] (Homo sapiens, UniProt P00533, C797S/L858R/T790M)
Construct: purchased Carna Bio
Assay Text: Inhibition of EGFR[T790M/C797S/L858R] biochemical enzymatic activity (HTRF)
Particulars: EGFR T790M-C797S-L858R, 1 mM ATP, 1 h, room temperature, read-out: IC50 (nM) @T790M- C797S - L858R

# count of solved cases: 2
>  <Molecule>
CN(C)CCCN(C)c1ccc2nc3n(c2c1)C12CCC(CN(CCOc4c(cnn4C)-c4cc(cn(C)c4=O)C(=O)N3)C1)C2 (single isomer, unassigned) [Example A89A]

>  <Outcome Measure>
IC50

>  <Measurement>
> 5000 nM

$$$$
>  <Molecule>
CN(C)C1CN(c2ccc3nc4n(c3c2)C23CCC(CN(CCOc5c(cnn5C)-c5cc(cn(C)c5=O)C(=O)N4)C2)C3)CC1F (single isomer, unassigned) [Example A84B]

>  <Outcome Measure>
IC50

>  <Measurement>
> 5000 nM

$$$$

Below: the item to evaluate.
Asked: Tell me the measured IC50 of Cn1ncc2c1OCCN1CC3CCC(C3)(C1)n1c(nc3ccc(N4CC(N5CCOCC5)C4)cc31)NC(=O)c1cc-2c(=O)n(C)c1 (single isomer, unassigned) [Example A69A] , please.
Given back: > 5000 nM

* * *

Target Entity: EGFR (d746-750 C797S) (Homo sapiens, UniProt P00533, C797S/DEL746-750)
Construct: purchased signalchem
Sequence (P00533 with tags, fused parts or gaps DEL746-750/C797S limits assumed): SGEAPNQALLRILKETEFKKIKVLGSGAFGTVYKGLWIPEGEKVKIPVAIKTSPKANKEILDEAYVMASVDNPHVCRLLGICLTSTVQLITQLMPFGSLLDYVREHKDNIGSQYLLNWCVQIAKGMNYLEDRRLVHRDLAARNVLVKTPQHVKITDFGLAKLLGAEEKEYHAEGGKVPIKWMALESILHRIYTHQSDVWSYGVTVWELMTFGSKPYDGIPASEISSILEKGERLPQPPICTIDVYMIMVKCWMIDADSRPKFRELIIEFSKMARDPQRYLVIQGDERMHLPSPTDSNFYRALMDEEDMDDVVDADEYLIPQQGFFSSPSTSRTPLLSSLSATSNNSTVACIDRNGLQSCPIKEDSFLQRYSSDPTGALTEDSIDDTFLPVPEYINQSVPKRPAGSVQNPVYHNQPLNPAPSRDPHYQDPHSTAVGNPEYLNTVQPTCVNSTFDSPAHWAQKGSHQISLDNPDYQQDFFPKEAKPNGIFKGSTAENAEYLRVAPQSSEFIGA
Assay Text: Inhibition of EGFR (d746-750 C797S) biochemical enzymatic activity (HTRF)
Particulars: EGFR (d746-750 C797S), 1 mM ATP, 1 h at room temperature, read-out: IC50 @Del19-C797S
pIC50: −log10 of the molar value.
Property: pIC50; scope: individual molecules

>  <Molecule>
Cc1cc2cc(n1)-c1cnn(C)c1OCCN1CC3CCC(C3)(C1)n1c(nc3ccc(N4CCC(N5CCOCC5)C4)cc31)NC2=O (single isomer, unassigned) [Example B44A2]

>  <pIC50>
< 5.30

$$$$

Asked: Tell me the measured pIC50 of "Cc1cc2cc(n1)-c1cnn(C)c1OCCCCCn1c(nc3ccc4c(c31)CN(C1COC1)CC4)NC2=O" , please.
Given back: < 6.30
